For reference, the following Ki results for UniProt:Q9Y233 were taken from various sources.
The answer is to be given in nM; state only the numeric part.

In the examples that follow, each entry is paired with its recorded Ki.
COc1ccc([C@H]2C[C@@H]2COc2nc(C)ncc2-c2cc(C#N)c(=O)n(C)c2C)nc1 : 0.117
Cc1nc(CCc2ccc3ncccc3n2)cc(-n2nc(C)nc2C)n1 : 73
Cc1nc(C)n(-c2cc(N3CC(c4nc5ccccc5n4C)C3)nc(OCc3ccno3)n2)n1 : 0.4
Cc1ccc([C@H]2C[C@@H]2COc2nc(C)ncc2-c2ccc(=O)n(C(F)F)c2)nc1 : 1.1

Quick one: Ki for COc1ccc2nc(C3CC3c3cc(-n4nc(C)nc4C)nc(C)n3)[nH]c2c1 (centres unmarked) ?
30.5

Quick one: Ki for COc1ccc([C@H]2C[C@@H]2COc2nc(C)ncc2-c2ccc([S+](C)[O-])nc2)nc1 (single isomer, unassigned) ?
1.75

Quick one: Ki for Cc1nc(-n2nc(C)nc2C)cc([C@H]2C[C@@H](c3nc4ccccc4n3C)C2)n1 ?
2.8

Quick one: Ki for Cc1ccnc([C@H]2C[C@@H]2COc2nc(C)ncc2-c2cn(C)nc2C(C)O)c1 (some centres unmarked) ?
1.47
